These entries and their values trace back to PubChem BioAssay (NCI).

system: A549 NSCLC; experiment: NCI tumour cell line growth inhibition, 48 h
Measured parameter: TGI

• CC12CCC(C(Nc3ccccn3)C1=O)C2(C)C (centres undefined) = > 100 µM
• CCOC(=O)Cn1c(=O)c2cc(-c3ccccc3)cc3c(Cl)nc4c(OC)c(OC)cc1c4c32 = > 100 µM
• C/C(=N\N=C(N)N)C(CN(C)C)C(c1ccccc1)c1c(O)c2ccccc2oc1=O (centres undefined) = > 100 µM
• O=[N+]([O-])c1ccc2nc3ccccc3cc2c1 = 8.95 µM
• Nc1ccc(Oc2ccc(C34CC5CC6C3CC3CC4C(C5)C6(c4ccc(Oc5ccc(N)c(O)c5)cc4)C3)cc2)cc1O = 12.9 µM
• C=C1C(=O)OC2CC(C)C3C=CC(=O)C3CC12 (centres undefined) = 24 µM
• C#CCn1c(=O)c(Cl)cn(/C(=C/C(=O)OCC)C(=O)OCC)c1=O = > 62.8 µM
• CN1CCN(c2ccc(C(=O)Nc3cc(-c4cccc(NS(=O)(=O)c5ccccc5)c4)[nH]n3)cc2)CC1 = 25.4 µM
• CC(C)C1CC[C@H](C)C[C@@H]1OC(=O)C(C(=O)O[C@H]1C[C@@H](C)CCC1C(C)C)C(O)[C@@H]1OC(C)(C)O[C@H]1C1COC(C)(C)O1 (some centres undefined) = 66.6 µM
• COc1ccc2c(c1)/C(=C/c1cc(OC)c(OC)c(OC)c1)C(=O)N2C = > 67.1 µM
• C=CCCCCCCCCCOC1C=CC(OC(C)=O)C(COC(C)=O)O1 (centres undefined) = > 100 µM
• COc1ccccc1-c1cc(=O)c2ccc(OC)c(OC)c2o1 = > 100 µM
• COc1cc2c(c(OC)c1OC)-c1ccc(OC)c(=O)cc1[C@@H](N(C)C=O)CC2 = > 100 µM
• CCCN(CCSSCCNc1nc(N(C)O)nc(N(C)O)n1)c1nc(N(C)O)nc(N(C)O)n1 = > 100 µM
• O=C1c2ccccc2C(=O)c2c(O)ccc(O)c21 = > 100 µM
• COc1ccc(-c2c(N)[n+]([O-])c3ccccc3[n+]2[O-])cc1OC = > 100 µM
• CCN(CC)CCCOc1cc2c(cc1OC)C(=O)N1CCC[C@H]1C=N2 = > 100 µM
• C=C1C(=O)O[C@@H]2[C@H](O)[C@@H](C)[C@@H]3C=CC(=O)[C@@]3(C)[C@H](OC(=O)C=C(C)C)[C@H]12 = 10 µM
• C=CC1=C(C)C2=NC1=CC1=NC(=CC3=C(C)C4=C(O)C(C(=O)OC)C(=C5NC(=C2)C(C)C5CCC(=O)OC)C4=N3)C(CC)=C1C (centres undefined) = > 100 µM

====

system: SW-620 colon; assay: NCI tumour cell line growth inhibition, 48 h; in the data active = GI50 below about 0.43 µM; inactive = the rest
Labels: active, inactive

• O=C1CCS/C(=N\S(=O)(=O)c2ccc(N3N=C4c5ccccc5CC4C3c3cccs3)cc2)N1C(=O)c1ccccc1 (stereo not drawn) = inactive
• COc1cc(/C=C2\C(=O)Nc3cccc(Cl)c32)cc(OC)c1OC = inactive
• NC1CCC(N[C@@H]2C[C@H]2c2ccccc2)CC1 (stereo partly drawn) = inactive
• O=C(Nc1cccc(-n2cc(-c3ccncc3)c(-c3ccc(O)c(Cl)c3)n2)c1)Nc1cccc(C(F)(F)F)c1 = inactive
• C=C1C[C@@]2(C)C(CC[C@]3(C)C2CC=C2C4CC(C)(C)C[C@@H](OC(=O)/C(C)=C\C)[C@]4(C(=O)O)CC[C@]23C)C(C)(C)C1=O (stereo partly drawn) = inactive
• COc1ccc2c(c1)C1(C(=O)N2)C(C#N)=C(c2ccccc2)Nc2c1c(-c1ccccc1)nn2-c1ccccc1 (stereo not drawn) = inactive
• Cc1ccc(Sc2sc(-c3ccccc3)nc2[P+](c2ccccc2)(c2ccccc2)c2ccccc2)cc1 = active
• NC(=O)c1ccc2nc3c(n2c1)C(=O)C(=O)c1ccccc1-3 = inactive
